- Test system: CAKI-1 renal
- measurementProtocol: NCI tumour cell line growth inhibition, 48 h
measuredAttribute: GI50

Known results for molecules:
# molecule, targetDesc, GI50
rows = [
    ("CO/N=C(\\COc1ccc2oc(-c3ccccc3)cc(=O)c2c1)c1ccc(F)cc1", "CAKI-1 renal", "> 100 µM"),
    ("CC(=O)[CH-]C(=O)c1ccccc1.CC(=O)[CH-]C(=O)c1ccccc1.[O-]c1ccc2c(c1)OCO2.[O-]c1ccc2c(c1)OCO2.[Ti+4]", "CAKI-1 renal", "29.5 µM"),
    ("Cc1ccc(C(=O)NC2CC2)cc1-c1ccc2[nH]ncc2c1", "CAKI-1 renal", "> 25 µM"),
    ("CC1(C)CCC[C@]2(C)c3ccccc3C(=O)CC12 (stereo partly drawn)", "CAKI-1 renal", "83.1 µM"),
    ("COc1cc2nccc(Oc3ccc(NC(=O)c4cn(C(C)C)c(=O)n(-c5ccc(F)cc5)c4=O)cc3F)c2cc1OC", "CAKI-1 renal", "1.91 µM"),
]

Query block: Provide GI50 value for the following molecule: `Cc1cccc2c1[nH]c(=O)c1c3ccccc3cn21`
Result block: 2.19 µM

Query block: Find the measured GI50 of `O=C1N=C(Nc2nc(-c3csc(NC4=NC(=O)/C(=C\c5ccccc5)S4)n3)cs2)S/C1=C/c1ccccc1` and report it.
Result block: 29.2 µM

Query block: Look up and report measured GI50 for this entry: COc1c(N2CCN(CN3C(=O)C(=Nc4ccc(S(=O)(=O)Nc5ncccn5)cc4)c4cc(Cl)ccc43)C(C)C2)c(F)cc2c(=O)c(C(=O)O)cn(C3CC3)c12 (stereo not drawn)
Result block: 14 µM
